Conditions: 23 °C
Parameter threshold = 600 µM. Response is T when solubility meets or exceeds it, else F.

Prompt: Confirm if solubility reported for the compound `C[C@]12CC[C@@H](O)C[C@@H]1CC[C@@H]1[C@@H]2[C@H](O)C[C@]2(C)C(=O)CC[C@@H]12` is 600 µM or above.
Response: F

Prompt: Confirm if solubility reported for the compound COP(=O)(OC)OC1=C(Cl)C2C=CCC12 (stereo not given) is 600 µM or above.
Response: T

Prompt: Confirm if solubility reported for the compound C=C(C)C1CC=C(C)C(=O)C1 (stereo not given) is 600 µM or above.
Response: T

Prompt: Confirm if solubility reported for the compound `C[C@]12CC[C@@H](O)C[C@@H]1CC[C@@H]1[C@@H]2CC[C@]2(C)C(=O)CC[C@@H]12` is 600 µM or above.
Response: F

Prompt: Confirm if solubility reported for the compound `CC(=O)Nc1cc(NS(=O)(=O)C(F)(F)F)c(C)cc1C` is 600 µM or above.
Response: F
